target-or-test-system: T1, SGK PY-motif peptide (human)
T1 construct: N-terminal cysteine of the printed peptide; stretch of human SGK (SGK1) with the PY motif PPFY (Y298); also called SGK peptide; source: synthetic peptide (Auspep)
T1 peptide: H-CLYGLPPFYSRNT-NH2
protocol-notes: SPR; BIAcore 2000; peptide immobilised on Sensor Chip CM5 by amine chemistry; isolated WW-domains injected at 20 µl/min in HBS-EP; KD estimated from steady state equilibrium responses
cond: both partners purified
measure: Kd (µM)
Provide the reading as a plain figure in µM.

>>> result_number("GFLPKGWEVRHAPNGRPFFIDHNTKTTTWEDPRL (domain or fragment, UniProt P46934 840-873, looked up, Nedd4 WW-domain 3 (a Nedd4 with four WW-domains); also called WW-domain 3 of Nedd4; source: E. coli BL21, GST removed with thrombin or TEV protease, purified (glutathione-Sepharose, Superdex-75)) [Nedd4 WW3 (isolated WW-domain, GST removed)]")
130

Consider the record given below.
Tell me Kd reported for Nedd4-2 WW2-3 (isolated protein, GST removed) (domain or fragment) TTPGLPSGWEERKDAKGRTYYVNHNNRTTTWTRPIMQLAEDGASGSATNSNNHLIEPQIRRPRSLSSPTVTLSAPLEGAKDSPVRRAVKDTLSNPQSPQPSPYNSPKPQHKVTQSFLPPGWEMRIAPNGRPFFIDHNTKTTTWEDPRLKFPVHM
53.3

Source: paper PMC2921341
